From: patent US20210107971A1

Biological target: recombinant full-length human alpha synuclein monomer (human, UniProt P37840 1-140)
Assay: SPR, Biacore T200, as in Example 3; Fab injected;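 also: ligands amine-coupled on CM5 chip flow cells, HBS-EP+ running buffer, kinetic data fitted with 1:1 model allowing local bulk contribution and global Rmax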
Entries and their measured koff follow.
READOUT NAME: koff (s⁻¹)

1. 6470 rabbit Fab with light chain mutation Y30W (Fab, V domains shown) VH: QSVEESGGRLVTPGTPLTLTCTVSGIDLSSHDMYWVRQAPGKGLEYIGAIYASGSTYYASWAKGRFTISKTSTTVDLKMTSLTTEDTATYFCARIHYGNSGGLWGQGTLVTVSS VL: AIVMTQTPSSKSVAVGDTVTINCQASQSVWKNNYLAWFQQKPGQPPKQLIYGASTLASGVPSRFKGSGSGTQFTLTISDVVCDDAATYYCAGYKGGRNDGFAFGGGTEVVVKR = 0.151
2. 6470 rabbit Fab with heavy chain mutation N99K (Fab, V domains shown) VH: QSVEESGGRLVTPGTPLTLTCTVSGIDLSSHDMYWVRQAPGKGLEYIGAIYASGSTYYASWAKGRFTISKTSTTVDLKMTSLTTEDTATYFCARIHYGKSGGLWGQGTLVTVSS VL: AIVMTQTPSSKSVAVGDTVTINCQASQSVYKNNYLAWFQQKPGQPPKQLIYGASTLASGVPSRFKGSGSGTQFTLTISDVVCDDAATYYCAGYKGGRNDGFAFGGGTEVVVKR = 0.189
3. 6470 rabbit Fab with heavy chain mutation N99H (Fab, V domains shown) VH: QSVEESGGRLVTPGTPLTLTCTVSGIDLSSHDMYWVRQAPGKGLEYIGAIYASGSTYYASWAKGRFTISKTSTTVDLKMTSLTTEDTATYFCARIHYGHSGGLWGQGTLVTVSS VL: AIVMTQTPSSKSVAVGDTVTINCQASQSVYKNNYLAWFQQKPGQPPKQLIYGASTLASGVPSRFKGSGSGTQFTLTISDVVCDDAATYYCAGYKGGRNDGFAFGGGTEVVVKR = 0.00745
